- Protocol summary: Pharmacokinetics of Compound 1 in combination with MK-3475 in subjects with various cancers
- Format: in vivo, human
- Measurement parameters: human, plasma, oral, 100 mg, Diagnosis NSCLC PD-L1 High, first dose, geometric mean; read-out: AUC0-t
Parameter: AUC(0-t) (µM·h)
Just the number in µM·h, nothing appended.

Input: If you can, please state the reported AUC(0-t) value of NS(=O)(=O)NCCNc1nonc1C(=NO)Nc1ccc(F)c(Br)c1 [Compound 1] .
Output: 2.62

====

- Protocol summary: Pharmacokinetics of Compound 1 in combination with MK-3475 in subjects with various cancers
- Assay type: in vivo, human
- Measurement parameters: by dose, 25 mg, first dose, geometric mean
Parameter: Cmax (nM)
Your answer is read as nM, so omit the unit and give the number.

Input: Cmax lookup needed for NS(=O)(=O)NCCNc1nonc1C(=NO)Nc1ccc(F)c(Br)c1 , thanks.
Output: 199
